Values compiled from patent US20230242662A1.

# Target Or Test System: recombinant human CD46 antigen (human) (UniProt P15529)
# Method: ELISA, coated human CD46; EC50 at pH 7.4 over EC50 at pH 6.0
// ratio (ph 7.4/pH 6.0) lookup, one value per entry

{"columns": ["Binder", "ratio (ph 7.4/pH 6.0)"],
 "data": [
  ["BA-133-04-02 (antibody, V domains shown) VH: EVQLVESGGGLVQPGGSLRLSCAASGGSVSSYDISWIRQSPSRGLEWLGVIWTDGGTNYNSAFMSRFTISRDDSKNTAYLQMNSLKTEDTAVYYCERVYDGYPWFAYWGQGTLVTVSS VL: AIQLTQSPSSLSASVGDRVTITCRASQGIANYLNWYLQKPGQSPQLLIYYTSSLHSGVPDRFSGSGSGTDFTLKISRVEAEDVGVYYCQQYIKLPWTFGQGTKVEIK", 3.8],
  ["BAP133-2-03-03-SL (antibody, V domains shown) VH: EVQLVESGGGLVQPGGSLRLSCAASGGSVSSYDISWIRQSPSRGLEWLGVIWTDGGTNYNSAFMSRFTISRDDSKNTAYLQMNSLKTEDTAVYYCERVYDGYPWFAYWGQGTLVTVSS VL: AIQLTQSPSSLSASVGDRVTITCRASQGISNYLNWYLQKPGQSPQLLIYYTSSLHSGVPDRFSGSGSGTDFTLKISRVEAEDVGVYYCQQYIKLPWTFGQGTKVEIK", 3.23]
]}
